Reference source for all entries: the supplement of paper PMC8728848

SYSTEM: Man(a1-2)Man(a1-3)[Man(a1-6)]Man(a1-6)[Man(a1-2)Man(a1-3)]Man(b1-4)GlcNAc(b1-4)GlcNAc
EXPERIMENT_SUMMARY: glycan array binding signal (z-score within array); higher = stronger binding
STATED_CONDITIONS: glycan notation: IUPAC condensed, linker removed
Only a selection was taken, and the strongest signals are over-represented in it overall.
MEASUREMENT_TYPE: glycan array binding signal (z-score)
Lab note: write the figure by itself, no unit.

Identify the reported glycan array binding signal (z-score) for the following entry. FBG2 (Homo sapiens), Q9NRD1 (protein) MDAPHSKAALDSINELPENILLELFTHVPARQLLLNCRLVCSLWRDLIDLMTLWKRKCLREGFITKDWDQPVADWKIFYFLRSLHRNLLRNPCAEEDMFAWQIDFNGGDRWKVESLPGAHGTDFPDPKVKKYFVTSYEMCLKSQLVDLVAEGYWEELLDTFRPDIVVKDWFAARADCGCTYQLKVQLASADYFVLASFEPPPVTIQQWNNATWTEVSYTFSDYPRGVRYILFQHGGRDTQYWAGWYGPRVTNSSIVVSPKMTRNQASSEAQPGQKHGQEEAAQSPYRAVVQIFPPPVTIQQWNNATWTEVSYTFSDYPRGVRYILFQHGGRDTQYWAGWYGPRVTNSSIVVSPKMTRNQASSEAQPGQKHGQEEAAQSPYRAVVQI 3.61
